test: Oral bioavailability in Wistar rat at 2.38 mg/kg measured up to 4 hrs after dose; format: ADME, organism-based; settings: in vivo
PROPERTY: bioavailability (%)
Respond with the bare value in %.

## Input Data request, read-out bioavailability, for `CC1=CCC[C@H]1NC(=O)Nc1ccc(Cl)c(S(=O)(=O)C(C)(C)CF)c1O`
## Output 88

###

molecular target: UniProtKB P25025; assay: Antagonist activity at CXCR2 in human whole blood assessed as inhibition of GROalpha-stimulated CD11b upregulation preincubated for 15 mins followed by GROalpha stimulation measured after 15 mins by FITC-staining based FACS analysis
Sequence (P25025 whole entry): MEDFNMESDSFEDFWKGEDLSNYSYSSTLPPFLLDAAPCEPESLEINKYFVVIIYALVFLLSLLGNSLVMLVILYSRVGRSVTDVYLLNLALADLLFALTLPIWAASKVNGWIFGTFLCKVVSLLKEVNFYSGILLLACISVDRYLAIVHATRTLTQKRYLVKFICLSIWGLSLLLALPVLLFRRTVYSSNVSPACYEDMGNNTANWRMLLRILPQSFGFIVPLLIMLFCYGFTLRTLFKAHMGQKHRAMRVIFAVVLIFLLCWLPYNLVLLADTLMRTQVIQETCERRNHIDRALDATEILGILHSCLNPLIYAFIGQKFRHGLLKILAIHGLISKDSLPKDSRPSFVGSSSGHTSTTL
PROPERTY: IC50 (nM)
Respond with the bare value in nM.

Would you please look over these solved cases?
CC1=CCC[C@H]1NC(=O)Nc1ccc(Cl)c(S(=O)(=O)C2(CF)CCOCC2)c1O : 251
CC1=CCC[C@H]1NC(=O)Nc1ccc(Cl)c(S(=O)(=O)C(F)(F)CN(C)C)c1O : 631
CC1=CCC[C@H]1NC(=O)Nc1ccc(Cl)c(S(=O)(=O)C2CCN(CCF)CC2)c1O : 200
CC1=CCC[C@H]1NC(=O)Nc1ccc(Cl)c(S(=O)(=O)C2(F)CCOCC2)c1O : 63.1
CC1=CCC[C@H]1NC(=O)Nc1ccc(Cl)c(S(=O)(=O)[C@H]2C[C@H](N3CCCC3)C2)c1O : 100

## Input Data request, read-out IC50, for `CC1=CCC[C@H]1NC(=O)Nc1ccc(Cl)c(S(=O)(=O)C2(C)CCOCC2)c1O`
## Output 200

## Input Data request, read-out IC50, for `CCC1(S(=O)(=O)c2c(Cl)ccc(NC(=O)N[C@@H]3CCC=C3C)c2O)CCOCC1`
## Output 398

## Input Data request, read-out IC50, for `CC1=CCC[C@H]1NC(=O)Nc1ccc(Cl)c(S(=O)(=O)C(C)(C)[C@H]2CCOC2)c1O`
## Output 316

## Input Data request, read-out IC50, for `CC1=CCC[C@H]1NC(=O)Nc1ccc(Cl)c(S(=O)(=O)C(C)(C)C2CCOCC2)c1O`
## Output 398

###

system: Brain; assay: Dose normalized AUC (0 to 7 hrs) in Han-Wistar SOA rat model brain at 2 mg/kg administered via oral gavage by UPLC/MS/MS analysis; format: ADME, organism-based; conditions: in vivo
The label YES is reserved for AUC/dose strictly under 100 ng·h/g/mg/kg; NO covers values equal to or above it.

The examples below pair each entry with its known result.
CC1=CCC[C@H]1NC(=O)Nc1ccc(Cl)c(S(=O)(=O)[C@H]2C[C@H](N(C)C)C2)c1O : NO
CC1=CCC[C@H]1NC(=O)Nc1ccc(Cl)c(S(=O)(=O)C(C)(C)[C@H]2CCOC2)c1O : YES

## Input Item `CC1=CCC[C@H]1NC(=O)Nc1ccc(Cl)c(S(=O)(=O)[C@]2(C)CCOC2)c1O` : AUC/dose beneath 100 ng·h/g/mg/kg, strictly?
## Output YES

###

biological target: C-X-C chemokine receptor type 5 (Homo sapiens)
Sequence (P32302 whole entry): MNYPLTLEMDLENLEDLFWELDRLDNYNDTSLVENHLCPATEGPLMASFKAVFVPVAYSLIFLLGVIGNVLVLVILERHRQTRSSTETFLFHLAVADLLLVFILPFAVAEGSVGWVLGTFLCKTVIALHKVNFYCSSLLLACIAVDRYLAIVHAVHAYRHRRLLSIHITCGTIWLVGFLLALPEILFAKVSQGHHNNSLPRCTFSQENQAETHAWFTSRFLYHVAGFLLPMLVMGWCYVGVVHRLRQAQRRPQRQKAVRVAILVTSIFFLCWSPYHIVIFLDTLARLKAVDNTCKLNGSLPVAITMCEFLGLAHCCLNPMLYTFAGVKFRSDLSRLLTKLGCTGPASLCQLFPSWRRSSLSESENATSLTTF
pIC50: −log10 of the molar value.
PROPERTY: pIC50

## Input Data request, read-out pIC50, for `CC1=CCC[C@H]1NC(=O)Nc1ccc(Cl)c(S(=O)(=O)[C@@]2(C)CCOC2)c1O`
## Output < 5.00

###

test: Ratio of passive permeability in presence of dual P-gp/BCRP inhibitor GF120918 to absence of GF120918 in MDCK2-MDR1 cells transduced with BacMam2-BCRP at 3 uM after 90 mins by Transwell assay; format: ADME, cell-based, Canis lupus familiaris; settings: dog, mdck2-mdr1, 1.5 h
The label True is reserved for Ratio strictly under 2; False covers values equal to or above it.

CC1=CCC[C@H]1NC(=O)Nc1ccc(Cl)c(S(=O)(=O)C(C)(C)[C@@H]2CCOC2)c1O : False
CC1=CCC[C@H]1NC(=O)Nc1ccc(Cl)c(S(=O)(=O)C(C)(C)C(F)(F)F)c1O : True
CC1=CCC[C@H]1NC(=O)Nc1ccc(C#N)c(S(=O)(=O)C(C)(C)CC(F)(F)F)c1O : False
CC1=CCC[C@H]1NC(=O)Nc1ccc(Cl)c(S(=O)(=O)[C@H]2C[C@H](N(C)C)C2)c1O : False
CC1=CCC[C@H]1NC(=O)Nc1ccc(C#N)c(S(=O)(=O)C(C)(C)C)c1O : False

## Input Item `CC1=CCC[C@H]1NC(=O)Nc1ccc(Cl)c(S(=O)(=O)[C@]2(C)CCOC2)c1O` : Ratio beneath 2, strictly?
## Output False

## Input Item `CC1=CCC[C@H]1NC(=O)Nc1ccc(Cl)c(S(=O)(=O)C(C)(C)C)c1O` : Ratio beneath 2, strictly?
## Output True

## Input Item `CC1=CCC[C@H]1NC(=O)Nc1ccc(Cl)c(S(=O)(=O)[C@H]2C[C@H](N3CCCC3)C2)c1O` : Ratio beneath 2, strictly?
## Output False

## Input Item `CC1=CCC[C@H]1NC(=O)Nc1ccc(Cl)c(S(=O)(=O)C(C)(F)F)c1O` : Ratio beneath 2, strictly?
## Output False

Where these numbers come from: ChEMBL document CHEMBL4033786
